# measured-target: KAT6B (Homo sapiens)
# Construct: fused on or other part: N-terminal GST tag
# Sequence (Q8WYB5 723-2073 limits assumed): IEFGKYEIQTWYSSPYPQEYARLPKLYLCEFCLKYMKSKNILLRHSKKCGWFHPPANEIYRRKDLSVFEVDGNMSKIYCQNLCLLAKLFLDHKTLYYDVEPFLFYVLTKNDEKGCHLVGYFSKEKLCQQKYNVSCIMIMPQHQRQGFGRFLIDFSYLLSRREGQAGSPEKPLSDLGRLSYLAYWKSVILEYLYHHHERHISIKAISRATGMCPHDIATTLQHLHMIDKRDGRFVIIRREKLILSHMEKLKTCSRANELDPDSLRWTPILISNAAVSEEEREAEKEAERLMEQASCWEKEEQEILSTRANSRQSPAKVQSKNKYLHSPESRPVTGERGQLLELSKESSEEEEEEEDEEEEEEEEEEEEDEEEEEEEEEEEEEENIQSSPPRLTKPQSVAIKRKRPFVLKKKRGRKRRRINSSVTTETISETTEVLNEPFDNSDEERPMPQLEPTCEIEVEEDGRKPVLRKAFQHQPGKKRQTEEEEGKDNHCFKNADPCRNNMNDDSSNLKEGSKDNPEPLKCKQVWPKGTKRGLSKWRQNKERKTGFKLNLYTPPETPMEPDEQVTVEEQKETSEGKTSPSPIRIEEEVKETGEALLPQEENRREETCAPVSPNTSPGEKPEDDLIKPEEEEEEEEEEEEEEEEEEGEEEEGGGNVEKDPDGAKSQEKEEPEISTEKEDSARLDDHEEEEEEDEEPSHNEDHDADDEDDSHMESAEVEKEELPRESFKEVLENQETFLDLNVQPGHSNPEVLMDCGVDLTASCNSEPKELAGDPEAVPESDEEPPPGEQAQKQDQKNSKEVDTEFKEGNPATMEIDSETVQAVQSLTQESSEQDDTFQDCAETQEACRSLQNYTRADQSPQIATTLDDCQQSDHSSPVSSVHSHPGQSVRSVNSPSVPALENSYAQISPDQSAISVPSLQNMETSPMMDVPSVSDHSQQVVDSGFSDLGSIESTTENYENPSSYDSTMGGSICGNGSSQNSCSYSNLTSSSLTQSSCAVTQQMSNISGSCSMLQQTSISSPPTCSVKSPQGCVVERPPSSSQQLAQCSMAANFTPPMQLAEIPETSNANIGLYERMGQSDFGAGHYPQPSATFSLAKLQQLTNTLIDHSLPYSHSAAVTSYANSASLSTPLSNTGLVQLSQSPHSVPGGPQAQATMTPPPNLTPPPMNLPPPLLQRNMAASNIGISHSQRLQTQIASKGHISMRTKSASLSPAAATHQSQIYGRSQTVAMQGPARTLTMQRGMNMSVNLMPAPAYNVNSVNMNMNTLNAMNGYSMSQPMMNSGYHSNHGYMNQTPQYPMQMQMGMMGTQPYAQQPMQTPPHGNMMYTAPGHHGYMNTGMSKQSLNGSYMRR
# test-details: Kat6b activity assay (TR-FRET, acetylation of biotinylated histone H4 peptide)
# stated-conditions: recombinant human GST-tagged Kat6b (431-end), 30 mins at 22° C., read-out: KAT6B activity assay IC50 [mol/l] (arithmetic mean)
Each entry below carries its recorded IC50.
Write the answer as a number in nM, unit excluded.

Some entries whose results are on file:
• O=C(NS(=O)(=O)c1ccccc1-c1ccccc1)c1cc2ccc(-c3ccc(F)cc3)cc2o1 [Example 1] = 4790
• COc1cc(C)cc2oc(C(=O)NS(=O)(=O)c3ccccc3-c3ccccc3)cc12 [Example 10] = 1120
• CCC(C)c1ccc2cc(C(=O)NS(=O)(=O)c3ccccc3-c3ccccc3)oc2c1 (stereo not shown) [Example 27] = 9210

Next:
Value lookup for IC50; key = CCOc1ccccc1S(=O)(=O)NC(=O)c1cc2ccc(C(C)C)cc2o1 [Example 55]
538
